molecular target: 3-pTza peptide (Biotin-AminocaproicAcid-A.G.A.G.3-pTza.A.G.A.G); experiment: BLI; Octet RED96e; biotinylated peptides captured on streptavidin biosensors at 20 nM; Fab in solution, 20-200 nM; 1x HBS-T, 1% BSA
Below, each entry is listed with its recorded koff.
Enter your answer as a number in s⁻¹; do not include the unit.

Answered cases to consult:
hSC44.20.N32Y^L Fab (Fab, V domains shown) VH: EVQLVESGGGLVQPGGSLRLSCTASGFSIDSYGFSWVRQAPGKGLEHIGYLTAGGRAFYASWAKSRSTITRNTNENTVTLKMNSLRAEDTAVYYCAKLGTGSRFAIWGQGTLVTVSS VL: DIQMTQSPSSLSASVGDRVTITCRASQSVWRNKYVAWYQQKPGKAPKRLIYAIASLYSGVPSRFSGSGSGTDFTLTISSLQPEDFATYYCVGHYGSENDAYYAFGQGTKVEIK :: 0.000186
hSC44.20.N32F^L Fab (Fab, V domains shown) VH: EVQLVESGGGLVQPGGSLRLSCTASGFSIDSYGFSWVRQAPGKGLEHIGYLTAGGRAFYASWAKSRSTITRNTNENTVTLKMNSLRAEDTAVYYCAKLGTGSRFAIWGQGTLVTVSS VL: DIQMTQSPSSLSASVGDRVTITCRASQSVWRNKFVAWYQQKPGKAPKRLIYAIASLYSGVPSRFSGSGSGTDFTLTISSLQPEDFATYYCVGHYGSENDAYYAFGQGTKVEIK :: 0.000177

Consider the additional binder presented here.
get_value(item= hSC44 Fab (Fab, V domains shown) VH: EVQLVESGGGLVQPGGSLRLSCTASGFSIDSYGFSWVRQAPGKGLEHIGYLTAGGRAFYASWAKSRSTITRNTNENTVTLKMNSLRAEDTAVYYCAKLGSGNPVAIWGQGTLVTVSS VL: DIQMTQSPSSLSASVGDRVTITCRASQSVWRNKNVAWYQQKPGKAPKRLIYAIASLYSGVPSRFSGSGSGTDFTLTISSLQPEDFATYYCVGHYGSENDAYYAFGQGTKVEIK , readout=koff) returns 8.16e-05
